Test system: P. falciparum Dd2 (PfLuc) line expressing firefly luciferase, asexual blood stage
EXPERIMENT SUMMARY: microbe, parasite or virus in culture
Format: cell-based, Plasmodium falciparum
STUDY CONDITIONS: Plasmodium falciparum, DD2, read-out: CDD P. falciparum Luciferase ABS 11-pt Reconfirmation Dose Response (48hr): IC50 (μM); 11-pt dose response, 48hr
Listing: IC50 of selected compounds
Express your answer as a number followed by its unit.

COMPOUND	STUDY TARGET	IC50
Fc1ccccc1C1(CNC2CCOC3(CCOCC3)C2)CCCC1 (centres unmarked)	P. falciparum Dd2 (PfLuc) line expressing firefly luciferase, asexual blood stage	8.87 µM
O=C(Nc1nccs1)C1CCCN1Cc1ccccn1 (centres unmarked)	P. falciparum Dd2 (PfLuc) line expressing firefly luciferase, asexual blood stage	0.884 µM
Cc1cccc(C)c1Nc1noc2c1CN(C(=O)c1ccn(C)n1)CC2	P. falciparum Dd2 (PfLuc) line expressing firefly luciferase, asexual blood stage	0.885 µM
Clc1ccccc1C1(c2ccnc(CC3CC3)n2)CCNCC1	P. falciparum Dd2 (PfLuc) line expressing firefly luciferase, asexual blood stage	3.74 µM
Cc1ccsc1CN(Cc1cccnc1)C1CC(C)(C)NC(C)(C)C1	P. falciparum Dd2 (PfLuc) line expressing firefly luciferase, asexual blood stage	4.19 µM

Note down IC50 recorded for "CCN1CCN(C[C@@H]2CN(c3ncc(Cl)cc3F)C[C@@H]2CO)CC1"
1.58 µM

Note down IC50 recorded for "Clc1ccc(C2(CNC3=NCCN3)CCCCC2)cc1"
2.9 µM

Note down IC50 recorded for "Cc1cc(C)cc(CN2C[C@H]3COC[C@H](N4CCN(C)CC4)[C@H]3C2)c1"
2.44 µM

Note down IC50 recorded for CC(C)Nc1cc(-c2c[nH]nc2C2CCN(C(=O)C3CCC3)C2)ccn1 (centres unmarked)
4.05 µM

---

Tested on: P. falciparum Dd2 (PfLuc) line expressing firefly luciferase, asexual blood stage
EXPERIMENT SUMMARY: microbe, parasite or virus in culture
Type: cell-based, Plasmodium falciparum
STUDY CONDITIONS: Plasmodium falciparum, DD2, read-out: CDD P. falciparum Luciferase ABS 11-pt Reconfirmation Dose Response (48hr): IC50 (μM); 11-pt dose response, 48hr
Consider the reported IC50 of an entry and match it to a band in LOW = under 3 µM, MID = from 3 µM up to 7 µM, HIGH = 7 µM and over

For orientation, consider the following solved cases.
MOLECULE	CAT
Cc1nc[nH]c1CN(C)CC1CCCN(CCc2ccc(Cl)cc2)C1 (stereo not shown)	LOW
Clc1ccccc1C1(c2ccnc(-c3ccncc3)n2)CCNCC1	MID
Clc1cccc(N[C@H]2CCCN[C@H]2Cc2ccccc2)c1	LOW

Band for the recorded IC50 of "CN1CCC2(CCCN(c3nccc(C(F)(F)F)n3)C2)CC1" ?
HIGH

Band for the recorded IC50 of CCN1CCC2(CC1)CC(NCc1cccc(C)n1)c1ccccc1O2 (stereo not shown) ?
HIGH

Band for the recorded IC50 of "Cc1ccnc(NC(=O)c2[nH]nc(C(C)C)c2Br)c1" ?
MID

---

EXPERIMENT SUMMARY: HepG2 cytotoxicity screening (CellTiter-Glo)
STUDY CONDITIONS: human, uninfected HepG2-A16-CD81 (EGFP) hepatocytes
pIC50: −log10 of the molar value.
MEASUREMENT TYPE: pIC50

Solved entries:
MOLECULE	pIC50
Cc1nc(NC(=O)c2c(-n3cnnn3)sc(C)c2C)sc1C [UCSD-0786548]	< 4.60
CC(C)(CO)Nc1ccc(-c2nc(-c3ccccc3F)no2)cn1 [UCSD-0833103]	< 4.60
COc1cccc(CN2CCC(CO)(Cc3ccc(Cl)cc3)CC2)c1O [UCSD-0828601]	4.91
CCS(=O)(=O)N1CCc2ccc(NC(=O)Nc3cccc(C)c3)cc21 [UCSD-0785768]	< 4.78

Note down pIC50 recorded for CCOC(=O)N1CCN(c2nc(CCN)nc3sc(C)c(C)c23)CC1 [UCSD-0834429]
< 4.60

Note down pIC50 recorded for CC(C)N(CC(N)=O)Cc1csc(COc2ccc(F)cc2)n1 [UCSD-0845986]
4.64
